Test system: Ba/F3 cells KRAS G12D
Test: Ba/F3 proliferation assay (KRAS G12D)
Type: cell-based
Conditions: Mus musculus, BaF3, 72 h, AlamarBlue viability
observationType: IC50 (nM)

Solved cases below.
• C[C@H](Oc1nc(-c2noc3c2CCC[C@@]32CCCc3sc(N)c(C#N)c32)nc2c1cnn2[C@@H]1CCOC1)[C@@H]1CCCN1C = 16
• CO[C@H]1CCN(C)[C@@H]1[C@H](C)Oc1nc(-c2noc3c2CCC[C@@]32CCCc3sc(N)c(C#N)c32)nc2c1n(C)c(=O)n2[C@@H]1CCCOC1 = 9
• C[C@H](Oc1nc(-c2noc3c2CCC[C@@]32CCCc3sc(N)c(C#N)c32)nc2c1CN(C1COC1)C[C@]21CCOC1)[C@@H]1CC[C@H](C)N1C = 6
• C[C@H](Oc1nc(-c2onc3c2CCC[C@@]32CCCc3sc(N)c(C#N)c32)nc2c1CN(C1COC1)C[C@]21CCOC1)[C@@H]1CC[C@H](C)N1C = 10
• CO[C@H]1CCN(C)[C@@H]1[C@H](C)Oc1nc(-c2onc3c2CCC[C@@]32CCCc3sc(N)c(C#N)c32)nc2c1CN(C1COC1)C[C@]21CCOC1 = 11
• CO[C@@H]1C[C@@H]([C@H](C)Oc2nc(-c3noc4c3CCC[C@@]43CCCc4sc(N)c(C#N)c43)nc3c2CN(C2COC2)C[C@]32CCOC2)N(C)C1 = 11
• CO[C@H]1CCN(C)[C@@H]1[C@H](C)Oc1nc(-c2onc3c2CCC[C@@]32CCCc3sc(N)c(C#N)c32)nc2c1n(C)c(=O)n2[C@H]1COC[C@@H](C)C1 = 26
• C[C@H](Oc1nc(-c2noc3c2CCC[C@@]32CCCc3sc(N)c(C#N)c32)nc2c1CN(C1COC1)C[C@]21CCOC1)[C@@H]1CCCN1C = 8
• C[C@H](Oc1nc(-c2noc3c2CCC[C@@]32CCCc3sc(N)c(C#N)c32)nc2c1CN(c1ncccn1)[C@]21CCOC1)[C@@H]1CCCN1C = 28
• CO[C@H]1CCN(C)[C@@H]1[C@H](C)Oc1nc(-c2onc3c2CCC[C@@]32CCCc3sc(N)c(C#N)c32)nc2c1n(C)c(=O)n2[C@H]1CO[C@@H](C)C1 = 3

(I) C[C@H](Oc1nc(-c2onc3c2CCC[C@@]32CCCc3sc(N)c(C#N)c32)nc2c1n(C)c(=O)n2[C@@H]1CCCOC1)[C@@H]1CCCN1C
(II) C[C@H](Oc1nc(-c2onc3c2CCC[C@@]32CCCc3sc(N)c(C#N)c32)nc2c1n(C)c(=O)n2[C@H]1CCCOC1)[C@@H]1CCCN1C
Request: Hey, which is lower on measured IC50, I or II ? Answer format: the label of the selected item.
Result: I
(I: 12 nM, II: 344 nM)

(P) C[C@H](Oc1nc(-c2onc3c2CCC[C@@]32CCCc3sc(N)c(C#N)c32)nc2c1n(C)c(=O)n2[C@H]1CO[C@@H](C)C1)[C@@H]1CCCN1C
(Q) C[C@H](Oc1nc(-c2onc3c2CCC[C@@]32CCCc3sc(N)c(C#N)c32)nc2c1N(C)C(=O)CN2[C@@H]1CCOC1)[C@@H]1CCCN1C
(R) CCn1c(=O)n([C@@H]2CCOC2)c2nc(-c3onc4c3CCC[C@@]43CCCc4sc(N)c(C#N)c43)nc(O[C@@H](C)[C@@H]3CCCN3C)c21
Request: Kindly order the items shown according to IC50, from the highest value down. # output: labels, in the requested order
Result: Q, R, P
(Q: 305 nM, R: 21 nM, P: 1 nM)

* * *

Test system: Ba/F3 cells KRAS G12C
Assay: Ba/F3 proliferation assay (KRAS G12C)
Assay type: cell-based
Conditions: Mus musculus, BaF3, 72 h, AlamarBlue viability
pIC50: −log10 of the molar value.
observationType: pIC50

• C[C@H](Oc1nc(-c2onc3c2CCC[C@@]32CCCc3sc(N)c(C#N)c32)nc2c1n(C)c(=O)n2[C@@H]1CCOC1)[C@@H]1CC[C@H](C)N1C = 8.52

(1) Cc1cc2c(O[C@@H](C)[C@@H]3CCCN3C)nc(-c3onc4c3CCC[C@@]43CCCc4sc(N)c(C#N)c43)nc2n1[C@@H]1CCOC1
(2) C[C@H](Oc1nc(-c2noc3c2CCC[C@@]32CCCc3sc(N)c(C#N)c32)nc2c1CN(C1COC1)C[C@]21CCOC1)[C@@H]1CCCN1C
(3) C[C@H](Oc1nc(-c2onc3c2CCC[C@@]32CCCc3sc(N)c(C#N)c32)nc2c1n(C)c(=O)n2[C@H]1CCCOC1)[C@@H]1CCCN1C
(4) C[C@H](Oc1nc(-c2noc3c2CCC[C@@]32CCCc3sc(N)c(C#N)c32)nc2c1CN(c1ncccn1)[C@]21CCOC1)[C@@H]1CCCN1C
(5) CO[C@H]1C[C@@H](n2c(=O)n(C)c3c(O[C@@H](C)[C@@H]4CCCN4C)nc(-c4onc5c4CCC[C@@]54CCCc5sc(N)c(C#N)c54)nc32)C1
Request: List the 5 entries from lowest pIC50 to highest pIC50 value. # output: labels, in the requested order
Result: 3, 5, 1, 4, 2

* * *

Experiment: Caco-2 assay (permeability and efflux ratio)
Format: in vitro ADME
Conditions: human, pH 7.4, Caco-2 efflux ratio PappBA/PappAB, read-out: Caco ER
Experimental: The assay provides information on the potential of a compound to pass the cell membrane, on the extent of oral absorption as well as on whether the compound is actively transported by uptake and/or efflux transporters. […] Concentrations of test compounds in samples were measured by HPLC/MS/MS, samples from the donor compartment were diluted 1:50 (v:v) with assay buffer, samples from receiver compartment were measured without dilution. […]
observationType: efflux ratio at 90 min, 10 μM

* C[C@H](Oc1nc(-c2onc3c2CCC[C@@]32CCCc3sc(N)c(C#N)c32)nc2c1[nH]c(=O)n2[C@@H]1CCOC1)[C@@H]1CCCN1C | 46.3
* C[C@H](Oc1nc(-c2noc3c2CCC[C@@]32CCCc3sc(N)c(C#N)c32)nc2c1CN(C1COC1)C[C@]21CCOC1)[C@@H]1CC[C@H](C)N1C | 3.4

(P) CO[C@@H]1C[C@@H]([C@H](C)Oc2nc(-c3noc4c3CCC[C@@]43CCCc4sc(N)c(C#N)c43)nc3c2n(C)c(=O)n3[C@@]23COC[C@@H]2C3)N(C)C1
(Q) CO[C@@H]1C[C@@H]([C@H](C)Oc2nc(-c3onc4c3CCC[C@@]43CCCc4sc(N)c(C#N)c43)nc3c2n(C)c(=O)n3[C@@]23COC[C@@H]2C3)N(C)C1
Request: Hey, which is lower on measured efflux ratio at 90 min, 10 μM, P or Q ? Answer format: the label of the selected item.
Result: Q
(Q: 1.8, P: 4.3)

* * *

Test system: MKN1 cells
Assay: MKN1 CTG proliferation assay (120 h) (gastric cancer, wt amplified)
Assay type: cell-based
Conditions: Homo sapiens, MKN-1
pIC50: −log10 of the molar value.
observationType: pIC50

(a) C[C@H](Oc1nc(-c2noc3c2CCC[C@@]32CCCc3sc(N)c(C#N)c32)nc2c1n(C)c(=O)n2[C@@H]1CCOC1)[C@@H]1CCCN1C
(b) C[C@@H]1COC[C@H](n2c(=O)n(C)c3c(O[C@@H](C)[C@@H]4CCCN4C)nc(-c4onc5c4CCC[C@@]54CCCc5sc(N)c(C#N)c54)nc32)C1
Request: Hey, which is lower on measured pIC50, a or b ? Answer format: the label of the selected item.
Result: b
(b: 8.00, a: 8.40)

(a) Cc1cc2c(O[C@@H](C)[C@@H]3CCCN3C)nc(-c3onc4c3CCC[C@@]43CCCc4sc(N)c(C#N)c43)nc2n1[C@@H]1CCOC1
(b) C[C@H](Oc1nc(-c2noc3c2CCC[C@@]32CCCc3sc(N)c(C#N)c32)nc2c1n(C)c(=O)n2[C@H]1CO[C@@H](C)C1)[C@@H]1CCCN1C
Request: Hey, which is lower on measured pIC50, a or b ? Answer format: the label of the selected item.
Result: a

(I) C[C@H](Oc1nc(-c2onc3c2CCC[C@@]32CCCc3sc(N)c(C#N)c32)nc2c1n(C)c(=O)n2[C@H]1CCCOC1)[C@@H]1CCCN1C
(II) CO[C@H]1CCN(C)[C@@H]1[C@H](C)Oc1nc(-c2onc3c2CCC[C@@]32CCCc3sc(N)c(C#N)c32)nc2c1CN(C1COC1)C[C@]21CCOC1
Request: Short answer wanted: higher pIC50, I or II ? Answer format: the label of the selected item.
Result: II
(II: 9.00, I: 6.48)

(a) CO[C@@H]1C[C@@H]([C@H](C)Oc2nc(-c3onc4c3CCC[C@@]43CCCc4sc(N)c(C#N)c43)nc3c2n(C)c(=O)n3[C@@H]2CCCOC2)N(C)C1
(b) C[C@H](Oc1nc(-c2noc3c2CCC[C@@]32CCCc3sc(N)c(C#N)c32)nc2c1COC[C@]21CCOC1)[C@@H]1CCCN1C
Request: Short answer wanted: higher pIC50, a or b ? Answer format: the label of the selected item.
Result: b
(b: 8.52, a: 7.32)
